Test system: Candida albicans
Protocol summary: Antifungal activity against Candida albicans ATCC 10231 assessed as growth inhibition at 200 uM after 24 hrs
Assay type: functional
Condition label: ATCC 10231, 24 h
Peptide text beside a SMILES is read from it.
Exercise: for every item that follows, state its recorded inhibition at 200 µM.
One number for each entry, in %.

>>> reading("NCCCC[C@H](NC(=O)[C@H](CCCCN)NC(=O)[C@H](Cc1c[nH]c2ccccc12)NC(=O)[C@@H](N)CCCCN)C(N)=O (H-KWKK-NH2)")
9
>>> reading("CC[C@H](C)[C@H](NC(=O)[C@H](CCCCN)NC(=O)[C@@H](NC(=O)[C@H](CCC(N)=O)NC(=O)[C@@H](N)CCCNC(=N)N)[C@@H](C)CC)C(=O)N[C@@H](Cc1c[nH]c2ccccc12)C(=O)N[C@@H](Cc1ccccc1)C(=O)N[C@@H](CCC(N)=O)C(=O)N[C@@H](CC(N)=O)C(=O)N[C@@H](CCCNC(=N)N)C(=O)N[C@@H](CCCNC(=N)N)C(=O)N[C@@H](CCSC)C(=O)N[C@@H](CCCCN)C(=O)N[C@@H](Cc1c[nH]c2ccccc12)C(=O)N[C@@H](CCCCN)C(=O)N[C@@H](CCCCN)C(N)=O")
100
>>> reading("C[C@@H]1[C@H](O)[C@@H](C)/C=C/C=C/C=C/C=C/C=C/C=C/C=C/[C@H](O[C@@H]2O[C@H](C)[C@@H](O)[C@H](N)[C@@H]2O)C[C@@H]2O[C@](O)(C[C@@H](O)C[C@@H](O)[C@H](O)CC[C@@H](O)C[C@@H](O)CC(=O)O[C@H]1C)C[C@H](O)[C@H]2C(=O)O")
100
>>> reading("CC(=O)N1CCN(c2ccc(OCC3COC(Cn4ccnc4)(c4ccc(Cl)cc4Cl)O3)cc2)CC1 (stereo not given)")
100

Using Candida albicans as the test system, report measured inhibition at 200 µM of N=C(N)NCCC[C@H](N)C(=O)N[C@@H](CCC(N)=O)C(=O)N[C@@H](CCCCN)C(=O)N[C@@H](CCCCN)C(N)=O (H-RQKK-NH2) . 6
